All values here come from patent US20140348834A1.

Molecular target: T1, human IL-17A/F (human, UniProt Q16552 24-155; Q96PD4 31-163)
T1 construct: Recombinant; biotinylated in the ELISA; also called hIL-17A/F; HuIL-17A/F
T1 sequence (Q16552 24-155, chain 1 of 2): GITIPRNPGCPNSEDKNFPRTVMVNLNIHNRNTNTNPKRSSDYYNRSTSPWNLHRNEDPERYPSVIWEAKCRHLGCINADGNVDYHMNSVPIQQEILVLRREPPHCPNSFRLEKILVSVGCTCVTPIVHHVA
T1 sequence (Q96PD4 31-163, chain 2 of 2): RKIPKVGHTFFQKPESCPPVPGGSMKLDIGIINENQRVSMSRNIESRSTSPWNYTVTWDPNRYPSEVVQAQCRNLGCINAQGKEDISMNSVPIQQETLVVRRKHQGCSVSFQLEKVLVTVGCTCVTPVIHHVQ
Assay: SPR (Biacore 3000), antibody captured by anti-Fc, antigen in solution;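 further: purified recombinant IL-17 antigens flowed over captured antibodies in HBS-EP buffer, global Langmuir one-to-one fit of association and dissociation phases, KD derived from koff over kon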
pKd: −log10 of the molar value.
Measured Quantity: pKd

* IL17-h10F7.6 (antibody, V domains shown, IgG; constant regions not specified; also called h10F7.6 (VH.1a-Vk.1a)) VH: EVQLVQSGAEVKKPGSSVKVSCKASGYTFTDYEIHWVRQAPGQGLEWIGVNDPESGGTFYNQKFDGRATLTADKSTSTAYMELSSLRSEDTAVYYCTRYYRYESFYGMDYWGQGTTVTVSS VL: DIQLTQSPSSLSASVGDRVTITCSASSSISYIYWFQQKPGKSPKRWIYATFELASGVPSRFSGSGSGTDYTLTISSLQPEDFATYYCHQRSSYPWTFGQGTKLEIKR | 8.94
* IL17-h5C5.8 (antibody, V domains shown, IgG; constant regions not specified; also called h5C5.8 (VH.1-Vk.1a)) VH: EVQLVQSGAEVKKPGASVKVSCKASGYTFTDYEFHWVRQAPGQGLEWMGVIHPGNGGTAYNQNFRDRVTITADKSTSTAYMELSSLRSEDTAVYYCARFLTYEGYFDYWGQGTLVTVSS VL: DIQMTQSPSSLSASVGDRVTITCKASQSVSIDVGWFQQKPGKSPKLLIYHASNRYTGVPSRFSGSGSGTDFTFTISSLQPEDFATYFCQQDYSSPYTFGQGTKLEIKR | 8.89
* IL17-h5C5.21 (antibody, V domains shown, IgG; constant regions not specified; also called h5C5.21 (VH.1b-Vk.3c)) VH: EVQLVQSGAEVKKPGASVKVSCKASGYTFTDYEFHWVRQAPGQGLEWIGVIHPGNGGTAYNQNFRDRATLTADKSTSTAYMELSSLRSEDTAVYYCTRFLTYEGYFDYWGQGTLVTVSS VL: NIVMTQSPATLSVSPGERATLSCKASQSVSIDVGWFQQKPGQSPRLLIYHASNRYTGVPARFSGSGSGTDFTLTISSLQPEDFAVYFCQQDYSSPYTFGQGTKLEIKR | 8.86
* IL17-h5C5.18 (antibody, V domains shown, IgG; constant regions not specified; also called h5C5.18 (VH.1b-Vk.1c)) VH: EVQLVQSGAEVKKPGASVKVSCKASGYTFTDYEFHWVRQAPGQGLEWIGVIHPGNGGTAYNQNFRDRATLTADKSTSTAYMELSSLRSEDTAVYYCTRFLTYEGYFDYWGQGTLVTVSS VL: NIVMTQSPSSLSASVGDRVTITCKASQSVSIDVGWFQQKPGKSPKLLIYHASNRYTGVPSRFSGSGSGTDFTFTISSLQPEDFATYFCQQDYSSPYTFGQGTKLEIKR | 8.88
* IL17-h5C5.15 (antibody, V domains shown, IgG; constant regions not specified; also called h5C5.15 (VH.1b-Vk.3a)) VH: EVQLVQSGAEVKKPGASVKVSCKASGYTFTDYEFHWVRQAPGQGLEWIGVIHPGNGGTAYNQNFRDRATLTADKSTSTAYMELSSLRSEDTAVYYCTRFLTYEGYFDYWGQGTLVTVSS VL: EIVMTQSPATLSVSPGERATLSCKASQSVSIDVGWFQQKPGQSPRLLIYHASNRYTGVPARFSGSGSGTDFTLTISSLQPEDFAVYFCQQDYSSPYTFGQGTKLEIKR | 8.84
